Ref: patent US20240116985A1

Molecular target: full-length beta-Catenin (Uniprot ID P35222) (Homo sapiens (Human)) (UniProt P35222)
Sequence (P35222 whole entry): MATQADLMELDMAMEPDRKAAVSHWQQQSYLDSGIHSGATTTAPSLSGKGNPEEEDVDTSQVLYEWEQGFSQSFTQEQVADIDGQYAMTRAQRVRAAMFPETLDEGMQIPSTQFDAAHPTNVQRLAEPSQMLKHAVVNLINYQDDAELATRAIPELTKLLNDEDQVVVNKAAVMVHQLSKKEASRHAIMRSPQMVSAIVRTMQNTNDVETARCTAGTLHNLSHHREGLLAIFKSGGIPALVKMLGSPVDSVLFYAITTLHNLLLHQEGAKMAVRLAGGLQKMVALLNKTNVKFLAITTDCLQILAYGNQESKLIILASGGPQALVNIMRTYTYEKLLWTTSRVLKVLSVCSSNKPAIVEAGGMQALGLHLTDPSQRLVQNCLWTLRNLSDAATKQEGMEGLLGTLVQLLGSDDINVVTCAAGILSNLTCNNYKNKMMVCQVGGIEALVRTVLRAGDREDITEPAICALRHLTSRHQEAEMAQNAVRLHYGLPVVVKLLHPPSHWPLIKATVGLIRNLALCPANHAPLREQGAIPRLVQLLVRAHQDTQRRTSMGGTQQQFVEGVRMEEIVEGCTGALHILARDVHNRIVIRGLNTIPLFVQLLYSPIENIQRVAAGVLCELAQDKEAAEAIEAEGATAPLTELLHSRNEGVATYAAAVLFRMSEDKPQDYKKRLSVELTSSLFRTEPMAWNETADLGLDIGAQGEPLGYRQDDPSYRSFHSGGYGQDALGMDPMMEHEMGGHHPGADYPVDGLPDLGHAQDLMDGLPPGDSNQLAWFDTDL
Assay: fluorescence polarization competition; competitor 5FAM-TCF4(10-53) probe on full-length beta-catenin
Starred links: 1 amine or outer side, 2 acyl side, 3 side chain; linkers in the order of their positions; H or OH if unused. Positions of bridges follow the written chain, without caps; N, C: chain ends. Non-standard residues stand in square brackets, D forms with d. Primed or numbered codes have the meaning given here. PyrS2″ = (S)-3-amino-1-((pent-4-en-1-yloxy)carbonyl)pyrrolidine-3-carboxylic acid (stapling residue), C=CCCCOC(=O)N1CC[C@@](N[*:1])(C(=O)[*:2])C1; B5(4) = 2,2-bis(4-pentenyl)glycine = 2-amino-2-(pent-4-en-1-yl)hept-6-enoic acid (stitching residue), C=CCCCC(CCCC=C)(N[*:1])C(=O)[*:2]; B5(3) = 2,2-bis(4-pentenyl)glycine (stitching residue), C=CCCCC(CCCC=C)(N[*:1])C(=O)[*:2]; Phe(3-COOH) = N[C@@H](Cc1cccc(C(=O)O)c1)C(=O)O; Bta = N[C@@H](Cc1csc2ccccc12)C(=O)O; Lys(iPr) = CC(C)NCCCC[C@H](N)C(=O)O; αAllylPro = C=CC[C@@]1(C(=O)O)CCCN1; tBuAla = CC(C)(C)C[C@H](N)C(=O)O; 3Thi = N[C@@H](Cc1ccsc1)C(=O)O; Cha = N[C@@H](CC1CCCCC1)C(=O)O
reported_endpoint: pIC50
// field semantics: pIC50 = negative decimal log of concentration (mol/L)

// query pIC50 value for entry Ac-[αAllylPro]D[tBuAla][B5(4)]DHAA[Phe(3-COOH)]L[PyrS2″][3Thi][Bta]Q-NH2 (staple 1-4, 4-11; also: later eluting HPLC isomer composition) [I-2123]
7.92

pIC50 lookup needed for Ac-[αAllylPro]N[Cha][B5(3)]DQ[Lys(iPr)]AFN[PyrS2″]F[Bta]Q-NH2 (staple 1-4, 4-11) [I-2113] , thanks.
6.79

I have this binder here, Ac-[αAllylPro]D[tBuAla][B5(4)]DWAA[Phe(3-COOH)]L[PyrS2″][3Thi][Bta]Q-NH2 (staple 1-4, 4-11) [I-2129] , and I need its recorded pIC50.
6.98

// lookup pIC50 for Ac-[αAllylPro]D[tBuAla][B5(4)]DHAA[Phe(3-COOH)]N[PyrS2″][3Thi][Bta]Q-NH2 (staple 1-4, 4-11; also: earlier eluting HPLC isomer composition) [I-2118]
7.68
